# test-system: human TLR7 (Homo sapiens (Human), UniProt Q9NYK1)
# Sequence (Q9NYK1 27-1049): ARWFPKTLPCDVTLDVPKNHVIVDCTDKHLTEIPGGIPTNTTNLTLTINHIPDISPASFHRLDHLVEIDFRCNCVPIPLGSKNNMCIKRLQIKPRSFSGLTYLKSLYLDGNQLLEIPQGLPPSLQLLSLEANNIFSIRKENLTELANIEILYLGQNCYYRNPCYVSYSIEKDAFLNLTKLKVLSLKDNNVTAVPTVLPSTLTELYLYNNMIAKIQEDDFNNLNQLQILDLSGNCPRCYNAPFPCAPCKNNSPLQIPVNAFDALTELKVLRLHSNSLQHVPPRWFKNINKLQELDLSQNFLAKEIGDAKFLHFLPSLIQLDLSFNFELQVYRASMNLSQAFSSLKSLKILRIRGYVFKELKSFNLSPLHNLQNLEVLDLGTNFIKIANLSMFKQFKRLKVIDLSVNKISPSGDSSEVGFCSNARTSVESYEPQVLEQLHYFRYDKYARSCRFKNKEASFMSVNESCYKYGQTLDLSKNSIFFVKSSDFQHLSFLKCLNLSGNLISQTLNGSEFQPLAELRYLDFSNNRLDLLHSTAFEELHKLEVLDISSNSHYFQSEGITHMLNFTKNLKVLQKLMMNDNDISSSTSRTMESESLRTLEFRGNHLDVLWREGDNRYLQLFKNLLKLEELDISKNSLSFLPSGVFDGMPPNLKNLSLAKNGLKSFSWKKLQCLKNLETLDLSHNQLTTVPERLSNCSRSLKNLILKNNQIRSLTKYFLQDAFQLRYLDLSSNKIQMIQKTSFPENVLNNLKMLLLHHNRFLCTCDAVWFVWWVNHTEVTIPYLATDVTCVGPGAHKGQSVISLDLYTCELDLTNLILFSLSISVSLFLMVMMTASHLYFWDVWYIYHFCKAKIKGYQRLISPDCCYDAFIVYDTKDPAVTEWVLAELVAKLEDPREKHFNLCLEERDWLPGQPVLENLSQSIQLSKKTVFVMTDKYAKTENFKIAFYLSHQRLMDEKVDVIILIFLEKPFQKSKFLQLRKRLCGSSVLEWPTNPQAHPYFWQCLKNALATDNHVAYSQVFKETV
# test-details: HEK-Blue TLR7 reporter assay (TLR7 agonist activity)
# condition-info: HEK-Blue TLR7 cells, SEAP reporter, 18 h treatment; read-out: TLR7 Agonism (EC50)
// EC50 lookup, one value per entry
result-type: EC50 (nM)

molecule | quantity-unit | data-value
CCCCOc1nc(N)c2nc(O)n(Cc3ccc(Oc4ccc(CNCCS(C)(=O)=O)cc4)c(F)c3)c2n1 | nM | 1.71
CCCCOc1nc(N)c2nc(O)n(Cc3ccc(Oc4ccc(CO)cc4)cc3)c2n1 | nM | 14
CCCCOc1nc(N)c2nc(O)n(Cc3cccc(Oc4cccc(CNC5CCOCC5)c4)c3)c2n1 | nM | 113
CCCCOc1nc(N)c2nc(O)n(Cc3ccc(Oc4cccc(CNCCOC)n4)cc3)c2n1 | nM | 2.82
CCCCOc1nc(N)c2nc(O)n(Cc3ccc(Oc4ccc(CNCCO)cc4)nc3)c2n1 | nM | 0.91
CCCCOc1nc(N)c2nc(O)n(Cc3ccc(Oc4ccc(CNCCOC)cc4)cc3)c2n1 | nM | 1.3
CCCCOc1nc(N)c2nc(O)n(Cc3ccc(Oc4ccc(CNCCOC)cc4)nc3)c2n1 | nM | 0.62
CCCCOc1nc(N)c2nc(O)n(Cc3ccc(Oc4cccc(CNCCO)n4)cc3)c2n1 | nM | 0.871
CCCCOc1nc(N)c2nc(O)n(Cc3cccc(Oc4cccc(CNCc5ccncc5)c4)c3)c2n1 | nM | 431
CCCCOc1nc(N)c2nc(O)n(Cc3ccc(Oc4ccc(CNC5CC5)cc4)nc3)c2n1 | nM | 0.83
CCCCOc1nc(N)c2nc(O)n(Cc3ccc(Oc4ccc(CNC)cc4)cc3)c2n1 | nM | 1.3
